biological target: B.1.351 Spike (SARS-CoV2)
Please respond with reported Response for every item in the list.
Give bare numbers.

{"Binder": "Ab_28 scFv-Fc (scFv, V domains shown) VH: QVTLKESGPGLVNPSETLSLTCTVSGASISNSFWSWIRQSPGKGLEWIGYTSYSGNSIYNPSLKSRLTMSIDTSKNQLSLNLRSLTAADTAVYYCARREWIKGHFDYWGQGTLVTVSS VL: NFMLTQPHSVSESPGKTVTISCTGSGGSIASNYVQWYQQRPGSAPTTVIYEDNQRPSGVPDRFSGSIDSSSNSASLTISGLKTEDEADYYCQSYDSSNPVVFGGGTKLTVL", "Response": 0.12}

// next item, Response requested
Exercise: Could you share which Response value was measured for Ab_21 scFv-Fc (scFv, V domains shown) VH: QVQLVQSGGGLVQPGGSLRLSCATSGFTFDDYAMHWVRQAPGKGLEWVSGISWNSGSIGYVDSVKGRFTISRDNRNNKVYLQMNNLRAEDTAVYYCARDWWGSIDHWGLGTLVTVSS VL: QSALTQPRSVSGSPGQSVTISCTGTSSDVGGYDYVSWYQQHPGKAPKLIIYDVSKRPSGVPDRFSGSKSGNTASLTVSGLQAEDEADYYCSSYTSSSPVVFGGGTKLTVL ?
Key: 0.148
